# System: NCI-H23
# measurement-notes: NCI tumour cell line growth inhibition, 48 h
Calls of active or inactive are those of the source. No stated cut-off is given here; in the data, active = GI50 up to about 1.1 µM and inactive = higher.
Respond only with the outcome that fits, drawn from active, inactive

> print(dat)
                                   compound  test.system  assigned.class
1  O=S(=O)(c1ccccc1)N1CCC1c1ccccc1 (stereo not given)      NCI-H23        inactive
2  COc1ccc(N2C(=O)[C@@H]3[C@H](C2=O)c2[nH]c4ccccc4c2C2CCC(C(C)(C)C)C[C@@H]23)cc1 (stereo not given in full)      NCI-H23        inactive
3  Cc1cc2nc3c(C#N)c4c(c(Nc5ccc(Cl)cc5)n3c2cc1C)CCC4      NCI-H23        inactive
4       CC1(C)NC(C)(C)/C(=N\O)C(=NO)/C1=N/O      NCI-H23        inactive

### Prompt In this assay, the call recorded for `O=[N+]([O-])c1nccn1CCCNc1ccnc2cc(Cl)ccc12` was what?
### Response inactive

### Prompt Short answer needed: outcome of this test for O=[N+]([O-])c1ccc(C(Cl)C(Cl)c2ccc(C(Cl)C(Cl)c3ccc([N+](=O)[O-])cc3[N+](=O)[O-])cc2)c([N+](=O)[O-])c1 (stereo not given) ?
### Response inactive

### Prompt Please share the test call associated with COc1cc2c(c(OC)c1OC)-c1ccc(SC)c(=O)cc1C(CC(=O)Oc1ccccc1F)C2 (stereo not given) .
### Response active

### Prompt Could you check what this test reported for COc1cc(C2C3=C(N=C4SC(C(C)=O)=C(C)N42)c2ccccc2CC3)cc(OC)c1OC (stereo not given) ?
### Response inactive

### Prompt Field: outcome | Entry: `c1ccc(-c2ccc(-c3ccc(C4=NCCN4)cc3)o2)cc1`
### Response inactive

### Prompt Recorded test call requested for `Cc1ccccc1C1=[N+]([O-])c2ccc(Cl)cc2C1=O`
### Response inactive

====

# Tested on: SK-MEL-2
# measurement-notes: NCI tumour cell line growth inhibition, 48 h
The source made the active and inactive calls. Rule as the data show it: active = GI50 up to about 1.1 µM and inactive = higher.
Outcome field: choose from active, inactive

> print(dat)
                               compound  assigned.class
1  C/C(=N\Nc1nc2ccccc2s1)c1cc2ccccc2cn1        inactive

### Prompt Query: recorded result category for `Cc1nc2ccccc2n1CCc1nc2ccccc2[nH]1` in this test
### Response inactive

### Prompt Lab log entry: `COc1ccc(C2=C(N)c3c(Cl)cccc3C2=O)cc1` — outcome as called in the assay?
### Response inactive

### Prompt Hello, I am checking results. What call was entered for O=C1c2ccccc2C(O)(C(=O)O)C1(O)CC=C(Cl)Cl (stereo unspecified) ?
### Response inactive

### Prompt Lab log entry: NC1C(O)C(O)C(CO)OC1n1cc(F)c(=O)[nH]c1=O (stereo unspecified) — outcome as called in the assay?
### Response inactive

### Prompt Which outcome was assigned to `CCc1nc2c(c(N(C)C)c1C(=O)OC)CCc1ccccc1-2` in this test?
### Response inactive

### Prompt Test call for this compound, please: `O=C(Cc1ccccc1)Nc1nc2ccc(Cl)cc2c2nc(-c3ccco3)nn12`
### Response inactive

### Prompt Outcome logged for O=C1c2ccccc2-n2nnnc2C2CSCN12 (stereo unspecified) in this assay:
### Response inactive

### Prompt Would you mind telling me which call this test gave O=C(CC1C(=O)Nc2ccccc2[S+]1[O-])Nc1ccccc1 (stereo unspecified) ?
### Response inactive

### Prompt Recorded call for CCOC(=O)C1(C#N)C(c2ccccc2)CC(O)(c2ccc(Cl)cc2)C(C(=O)c2ccc(Cl)cc2)C1c1ccccc1 (stereo unspecified) ?
### Response inactive

### Prompt # lookup: test call for `O=c1cc(-c2ccccc2F)[nH]c2ccc(N3CCCC3)cc12`
### Response active

====

# System: PC-3
# measurement-notes: NCI tumour cell line growth inhibition, 48 h
Active and inactive are the calls of the source. No stated cut-off is given here; in the data, active = GI50 up to about 1.1 µM and inactive = higher.
Outcome field: choose from active, inactive

Illustrative cases are given below, each with its answer.
compound	assigned-class
Cn1c(=O)c2nc3c(=O)n(C)c(=O)n(CC(N)=O)c3nc2n(C)c1=O	inactive
CC1(C)C=CC(=O)C(O)C(C)(C)C1=O (configuration not stated)	inactive
CN(C)c1ccc(/C=C2\Oc3ccccc3C2=O)cc1	inactive
Oc1ccc(/C=N/c2ccccc2O)cc1	inactive
COc1cc2nc(-c3cccs3)oc(=O)c2cc1OC	inactive
CC1c2cc(c3c(c2O)CN([C@@H](C)C2CCCCC2)CO3)C(C)c2cc(c3c(c2O)CN([C@@H](C)C2CCCCC2)CO3)C(C)c2cc(c3c(c2O)CN([C@@H](C)C2CCCCC2)CO3)C(C)c2cc1c1c(c2O)CN([C@@H](C)C2CCCCC2)CO1 (some centres not stated)	inactive
COc1ccc(C2=C(OC(C)=O)c3cccn3-c3ccccc3S2)cc1	inactive
C=CCN1C(=O)CC1N(CC=C)S(=O)(=O)c1ccc(C)cc1 (configuration not stated)	inactive

### Prompt Outcome? `Nc1c2c(nc3cc(F)c(F)cc13)CCC2`
### Response inactive

### Prompt # fetch the recorded call for Cc1cc(C)c(/C=C2\C(=O)Nc3ccccc32)[nH]1 [SEMAXANIB] here
### Response inactive

### Prompt Hey, what did the test say about C=C[C@@](C)(/C=C/c1ccc(O)cc1)CCC=C(C)C [BAKUCHIOL] ?
### Response inactive

====

Attribute: GI50
# Test system: A549
# measurement-notes: NCI tumour cell line growth inhibition, 48 h
The source made the active and inactive calls. Cut-off read from the data, not from the text of the source: active = GI50 up to about 1.1 µM and inactive = higher.

Previously resolved entries follow.
> print(dat)
                                   compound      reported.result
1  CCCNC(=O)OCc1c(COC(=O)NCCC)c(-c2ccc(Cl)c(Cl)c2)n2c1CCC2   6.61 µM (inactive)
2  CCOC(=O)C(C/C=C/CO)N(C)C(=O)OC(C)(C)C (stereo not drawn)  > 100 µM (inactive)
3    O=C1Cc2c([nH]c3cc(Br)ccc23)-c2ccccc2N1   15.8 µM (inactive)
4  CC(=O)C(C(C)=O)[C@H]1OC(C)(C)O[C@H]1[C@H]1COC(C)(C)O1   42.6 µM (inactive)
5   CCc1nc2c(c(N(C)C)c1C(=O)OC)CCc1ccccc1-2     31 µM (inactive)

Alright, here's another compound for you.
### Prompt Returns the measured GI50 for the input compound. Input: `COc1cc(CN[C@H]2CCc3cc(OC)c(OC)c(OC)c3-c3ccc(SC)c(=O)cc32)cc(OC)c1`
### Response 0.0376 µM (active)

====

# System: SNB-75
# measurement-notes: NCI tumour cell line growth inhibition, 48 h
Counter-ions that a name gives are not always drawn. Activity calls are given as the source filed them. Cut-off read from the data, not from the text of the source: active = GI50 up to about 1.1 µM and inactive = higher.
Can you answer with just one of these options? true (1) (active), false (0) (inactive)

> print(dat)
                                   compound  test.system  assigned.class
1  CCN1c2ccccc2-c2c3c1cc(C)cc3c1ccccc1[n+]2CC       SNB-75        true (1)
2       O=c1cc(N2CCCC2)[nH]c(=O)n1-c1ccccc1       SNB-75       false (0)
3               N#C[C-](C#N)[n+]1ccc(Cl)cc1       SNB-75       false (0)

### Prompt Hi, do you know how C=CCCC1(O)C(O)C(CO)O[C@H](O[C@@]2(CO)OC(CO)C(O)C2O)C1O (stereo partly specified) came out in this test?
### Response false (0)

### Prompt // return assay outcome for CC(CN1c2ccccc2Sc2ccccc21)N(C)C (stereo unspecified) [PROMETHAZINE HYDROCHLORIDE]
### Response false (0)

====

# System: SF-539
# measurement-notes: NCI tumour cell line growth inhibition, 48 h
Calls of active or inactive are those of the source. Rule as the data show it: active = GI50 up to about 1.1 µM and inactive = higher.
Give your call using only these classes: active, inactive

Here's what some known entries look like.
> print(dat)
                                   molecule  assigned.class
1  CCCNC(=O)OCc1c(COC(=O)NCCC)c(-c2ccc(Cl)c(Cl)c2)n2c1CCC2        inactive
2  O=C(CC1Sc2ccccc2NC1=O)Nc1ccc(Cl)cc1 (stereo not given)        inactive
3               N#C[C-](C#N)[n+]1ccc(Cl)cc1        inactive

### Prompt I would be grateful if you could indicate the recorded call for `NCC(=O)N[C@H]1c2ccsc2/C(=N/O)[C@H]1O` .
### Response inactive

### Prompt I'd appreciate the recorded outcome for `OC[P+](CO)(CO)C12CC3CC(CC(C3)C1)C2` from this test.
### Response inactive

### Prompt Test call for this molecule, please: `CC1(C)CC(=O)c2c(nc3c4c([nH]c(-c5ccc([N+](=O)[O-])cc5)c24)CC(C)(C)C3)C1`
### Response inactive
